meta.source: patent US12570659B2

Consider molecules characterized by their IC50 with JAK3 kinase (Homo sapiens (Human), UniProt P52333).
Sequence (P52333 whole entry): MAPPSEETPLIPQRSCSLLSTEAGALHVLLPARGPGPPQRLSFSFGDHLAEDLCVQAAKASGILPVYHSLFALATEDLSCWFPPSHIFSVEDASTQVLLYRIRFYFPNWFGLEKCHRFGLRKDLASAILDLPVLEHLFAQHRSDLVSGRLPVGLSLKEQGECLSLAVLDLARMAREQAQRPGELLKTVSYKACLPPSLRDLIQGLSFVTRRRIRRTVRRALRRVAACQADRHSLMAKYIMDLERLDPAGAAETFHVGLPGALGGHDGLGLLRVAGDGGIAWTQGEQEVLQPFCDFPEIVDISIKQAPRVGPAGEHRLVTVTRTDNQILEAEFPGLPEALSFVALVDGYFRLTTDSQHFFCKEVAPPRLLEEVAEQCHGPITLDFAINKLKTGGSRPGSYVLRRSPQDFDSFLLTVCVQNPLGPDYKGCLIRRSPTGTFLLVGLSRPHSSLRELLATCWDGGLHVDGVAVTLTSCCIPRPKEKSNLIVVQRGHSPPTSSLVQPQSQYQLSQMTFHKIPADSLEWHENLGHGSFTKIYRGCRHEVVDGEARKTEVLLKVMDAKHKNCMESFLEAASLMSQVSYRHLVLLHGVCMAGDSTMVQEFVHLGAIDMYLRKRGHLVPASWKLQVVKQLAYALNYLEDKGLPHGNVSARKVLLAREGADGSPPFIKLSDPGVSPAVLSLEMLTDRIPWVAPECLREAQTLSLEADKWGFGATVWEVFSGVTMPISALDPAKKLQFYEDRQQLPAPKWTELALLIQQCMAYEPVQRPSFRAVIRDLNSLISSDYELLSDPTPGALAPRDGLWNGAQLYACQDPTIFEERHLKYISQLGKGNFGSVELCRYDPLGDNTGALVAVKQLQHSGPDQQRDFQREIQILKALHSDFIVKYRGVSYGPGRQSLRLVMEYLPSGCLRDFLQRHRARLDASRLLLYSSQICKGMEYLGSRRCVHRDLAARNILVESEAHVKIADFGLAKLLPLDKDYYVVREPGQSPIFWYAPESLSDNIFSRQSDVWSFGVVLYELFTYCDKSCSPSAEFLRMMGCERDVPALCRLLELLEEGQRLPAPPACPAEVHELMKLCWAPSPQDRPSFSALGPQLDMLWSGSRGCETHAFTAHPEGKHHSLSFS

molecule	IC50
Cc1cnccc1-c1cc2c(NC(C)C)c(C(=O)NCCC(C)(C)O)cnn2c1 [Example 72]	> 50 µM
CC(C)Nc1c(C(=O)N[C@H]2CC[C@H](O)CC2)cnn2cc(-c3cccnc3)cc12 [Example 58]	> 50 µM
Cc1ccc(-c2cc3ncc(C(=O)NC[C@@H](F)C(C)(C)O)c(NC(C)C)n3n2)cn1 [Example 131]	> 50 µM
CC(C)CCNC(=O)c1cnn2cc(-c3ccncc3)cc2c1NC(C)C [Example 64]	~29 µM
COc1cc(-c2cc3ncc(C(=O)NC[C@@H](F)C(C)(C)O)c(NC(C)C)n3n2)ccn1 [Example 148]	> 10 µM
CC(C)Nc1c(C(=O)NCCNS(C)(=O)=O)cnc2cc(-c3ccncc3F)nn12 [Example 161]	> 10 µM
CC(C)Nc1c(C(=O)N[C@H]2CC[C@H](c3nc[nH]n3)CC2)cnn2cc(-c3ccc(F)nc3)cc12 [Example 92]	> 50 µM
CC(=O)N[C@H]1CC[C@H](NC(=O)c2cnn3cc(-c4ccc(C(N)=O)cc4)cc3c2NC(C)C)CC1 [Example 74]	> 50 µM

Ask | Find IC50 (JAK3 kinase (Homo sapiens (Human), UniProt P52333)) for the entry CC(C)Nc1c(C(=O)NC[C@@H](F)C(C)(C)O)cnn2cc(-c3cccc(C#N)c3)nc12 [Example 98]
Reply | > 50 µM

Ask | Find IC50 (JAK3 kinase (Homo sapiens (Human), UniProt P52333)) for the entry CC(C)Nc1c(C(=O)NC[C@@H](F)C(C)(C)O)cnc2cc(-c3cccnc3F)nn12 [Example 125]
Reply | > 10 µM

Ask | Find IC50 (JAK3 kinase (Homo sapiens (Human), UniProt P52333)) for the entry CC(C)Nc1c(C(=O)NC[C@@H](F)C(C)(C)O)cnn2cc(-c3ccncc3)cc12 [Example 5]
Reply | 29 µM

====

Consider compounds characterized by their IC50 with IRAK4 (Homo sapiens (Human), UniProt Q9NWZ3).
Sequence (Q9NWZ3 whole entry, species assumed): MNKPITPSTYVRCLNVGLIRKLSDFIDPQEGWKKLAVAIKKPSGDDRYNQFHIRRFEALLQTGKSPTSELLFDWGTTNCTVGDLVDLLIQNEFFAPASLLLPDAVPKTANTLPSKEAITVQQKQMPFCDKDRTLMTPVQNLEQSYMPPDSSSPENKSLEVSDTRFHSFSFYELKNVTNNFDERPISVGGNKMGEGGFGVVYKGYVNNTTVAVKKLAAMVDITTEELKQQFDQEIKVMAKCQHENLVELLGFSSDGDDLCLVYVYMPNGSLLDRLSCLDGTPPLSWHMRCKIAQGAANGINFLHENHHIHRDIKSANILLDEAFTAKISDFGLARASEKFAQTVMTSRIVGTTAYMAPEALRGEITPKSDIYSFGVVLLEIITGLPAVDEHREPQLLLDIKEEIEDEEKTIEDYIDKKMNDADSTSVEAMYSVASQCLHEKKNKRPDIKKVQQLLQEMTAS
Please state the figure in nM; there is no need to write the unit.

Here's what some known entries look like.
compound	IC50 (nM)
CC(C)Nc1c(C(=O)NC[C@@H](F)C(C)(C)O)cnn2cc(-c3ccc(N)nc3)cc12 [Example 45]	7.9
CC(C)Nc1c(C(=O)NCCNS(C)(=O)=O)cnc2cc(-c3ccncc3F)nn12 [Example 161]	160

Ask | Find IC50 (IRAK4 (Homo sapiens (Human), UniProt Q9NWZ3)) for the entry Cc1ccccc1-c1cc2ncc(C(=O)NC[C@@H](F)C(C)(C)O)c(NC(C)C)n2n1 [Example 136]
Reply | 510

Ask | Find IC50 (IRAK4 (Homo sapiens (Human), UniProt Q9NWZ3)) for the entry CC(C)Nc1c(C(=O)NC[C@@H](F)C(C)(C)O)cnc2cc(-n3ccccc3=O)nn12 [Example 151]
Reply | 580

Ask | Find IC50 (IRAK4 (Homo sapiens (Human), UniProt Q9NWZ3)) for the entry COc1ccc(-c2cc3c(NC4CCOCC4)c(C(=O)NC[C@@H](F)C(C)(C)O)cnn3c2)cn1 [Example 10]
Reply | 57

====

Consider molecules characterized by their log10 IC50 with IRAK4 (Homo sapiens (Human)).
Values below are the log10 of the recorded IC50, with nM as the unit.

Here's what some known entries look like.
molecule	log10 IC50
CC(=O)N[C@H]1CC[C@H](NC(=O)c2cnn3cc(-c4ccc(C(N)=O)cc4)cc3c2NC(C)C)CC1 [Example 74]	1.98
CC(C)Nc1c(C(=O)N[C@H]2CC[C@H](c3nc[nH]n3)CC2)cnn2cc(-c3ccc(F)nc3)cc12 [Example 92]	1.00
CC(C)Nc1c(C(=O)N[C@H]2CC[C@H](O)CC2)cnn2cc(-c3cccnc3)cc12 [Example 58]	1.73
CCOC(=O)N[C@H]1CC[C@H](NC(=O)c2cnn3cc(-c4ccncc4F)cc3c2NC(C)C)CC1 [Example 67]	1.11
CC(C)Nc1c(C(=O)NC[C@@H](F)C(C)(C)O)cnc2cc(-c3cnn(C)c3)nn12 [Example 126]	2.38

Ask | Given CC(C)Nc1c(C(=O)NC[C@@H](F)C(C)(C)O)cnn2cccc12 [Example 96] , state its recorded log10 IC50.
Reply | 2.87

Ask | Given COC(=O)N[C@H]1CC[C@H](NC(=O)c2cnn3cc(-c4ccncc4)cc3c2NC(C)C)CC1 [Example 51] , state its recorded log10 IC50.
Reply | 0.45

Ask | Given CC(C)(O)[C@H](F)CNC(=O)c1cnc2cc(-c3cccnc3)nn2c1N[C@H]1CCC[C@H]1O [Example 139] , state its recorded log10 IC50.
Reply | 2.40

Ask | Given CC(C)Nc1c(C(=O)NC[C@@H](F)C(C)(C)O)cnn2cc(-n3ncc4cc(C#N)cnc43)cc12 [Example 39] , state its recorded log10 IC50.
Reply | 1.32

Ask | Given CC(C)Nc1c(C(=O)NC[C@@H](F)C(C)(C)O)cnc2cc(-c3ccccn3)nn12 [Example 152] , state its recorded log10 IC50.
Reply | 2.20

Ask | Given CNC(=O)c1cncc(-c2cc3ncc(C(=O)NC[C@@H](F)C(C)(C)O)c(NC(C)C)n3n2)c1 [Example 156] , state its recorded log10 IC50.
Reply | 2.96

Ask | Given CC(C)Nc1c(C(=O)NC[C@@H](F)C(C)(C)O)cnn2cc(-c3ccc(F)cc3)cc12 [Example 13] , state its recorded log10 IC50.
Reply | 1.46

Ask | Given CC(C)Nc1c(C(=O)NCCC(C)(C)O)cnn2cc(-c3ccncc3F)nc12 [Example 109] , state its recorded log10 IC50.
Reply | 1.08

Ask | Given CC(C)Nc1c(C(=O)NC[C@@H](F)C(C)(C)O)cnn2cc(C3CC3)cc12 [Example 36] , state its recorded log10 IC50.
Reply | 1.66

Ask | Given CC(C)Nc1c(C(=O)NC[C@@H](F)C(C)(C)O)cnc2cc(-c3cccc(Cl)n3)nn12 [Example 153] , state its recorded log10 IC50.
Reply | 3.09

Ask | Given CC(=O)N[C@H]1CC[C@H](NC(=O)c2cnn3cc(-c4ccc(F)cn4)cc3c2NC(C)C)CC1 [Example 82] , state its recorded log10 IC50.
Reply | 1.53
